# Test system: 429239-143-T-J1-PDC complex spheroid viability;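 further: luminescence signal used as surrogate measure of viable cells; spheroids exposed to compounds for seven days before readout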
# assay-method-text: Anticancer human tumor 429239-143-T-J1-PDC patient-derived small cell lung carcinoma cell line growth inhibition [POLQ]
# experimental-context: second compound 1 µM; first compound 1 µM; hits give low values
# Description: Multicellular complex tumor spheroid response to Polymerase (POL) inhibitors (novobiocin, ART-558, RP6685) in combination with a variety of drugs and investigational agents in selected tumor cell lines The POL inhibitors (novobiocin, ART-558, and RP6685) were evaluated both individually and in combination with standard of care and investigational anticancer small molecules within a complex spheroid model of solid tumors. . […]
Note that class boundaries on viability, T/C are bottom bin = under 70%, middle bin = from 70% up to 90%, top bin = 90% and over

Field: example entries. Status: answers known.
O=C(c1cc(Cc2n[nH]c(=O)c3ccccc23)ccc1F)N1CCN(C(=O)C2CC2)CC1 + Nc1ccc(C#CCN(C(=O)Cc2ncc(C(F)(F)F)cc2C(F)(F)F)c2ccc(F)cc2)nn1: middle bin
CCc1c2c(nc3ccc(O)cc13)-c1cc3c(c(=O)n1C2)COC(=O)[C@]3(O)CC + Cc1cccc(N(C)C(=O)C2C(O)CCN2c2nc(C)cc(C(F)(F)F)c2C#N)c1: bottom bin
CC1COCCN1c1cc(-c2ccnn2C)c2ccnc(-c3ccn[nH]3)c2n1 (stereo not given) + Cc1cccc(N(C)C(=O)C2C(O)CCN2c2nc(C)cc(C(F)(F)F)c2C#N)c1: bottom bin
C#Cc1c(F)ccc2cc(O)cc(-c3ncc4c(N5CC6CCC(C5)N6)nc(OCC56CCCN5CC(F)C6)nc4c3F)c12 (stereo not given) + COC1C(OC(N)=O)C(O)C(Oc2ccc3c(O)c(NC(=O)c4ccc(O)c(CC=C(C)C)c4)c(=O)oc3c2C)OC1(C)C: top bin
CC(C)n1c(=O)n(C)c2cnc3cc(F)c(-c4ccc(OCCCN5CCCCC5)nc4)cc3c21 + Cc1cccc(N(C)C(=O)C2C(O)CCN2c2nc(C)cc(C(F)(F)F)c2C#N)c1: middle bin

Note: attention shifts to another entry.
Inquiry: GET /class?item= C=CC(=O)N1CCN(c2nc(=O)n(-c3c(C)ccnc3C(C)C)c3nc(-c4c(O)cccc4F)c(F)cc23)C(C)C1 (stereo not given) + Nc1ccc(C#CCN(C(=O)Cc2ncc(C(F)(F)F)cc2C(F)(F)F)c2ccc(F)cc2)nn1
Reply text: top bin

Source listed as PubChem BioAssay AID1963845.
